IC50: recorded values
# target.desc: human αVβ6 (Homo sapiens, UniProt P06756+P18564)
# Sequence (P06756 31-992 limits assumed): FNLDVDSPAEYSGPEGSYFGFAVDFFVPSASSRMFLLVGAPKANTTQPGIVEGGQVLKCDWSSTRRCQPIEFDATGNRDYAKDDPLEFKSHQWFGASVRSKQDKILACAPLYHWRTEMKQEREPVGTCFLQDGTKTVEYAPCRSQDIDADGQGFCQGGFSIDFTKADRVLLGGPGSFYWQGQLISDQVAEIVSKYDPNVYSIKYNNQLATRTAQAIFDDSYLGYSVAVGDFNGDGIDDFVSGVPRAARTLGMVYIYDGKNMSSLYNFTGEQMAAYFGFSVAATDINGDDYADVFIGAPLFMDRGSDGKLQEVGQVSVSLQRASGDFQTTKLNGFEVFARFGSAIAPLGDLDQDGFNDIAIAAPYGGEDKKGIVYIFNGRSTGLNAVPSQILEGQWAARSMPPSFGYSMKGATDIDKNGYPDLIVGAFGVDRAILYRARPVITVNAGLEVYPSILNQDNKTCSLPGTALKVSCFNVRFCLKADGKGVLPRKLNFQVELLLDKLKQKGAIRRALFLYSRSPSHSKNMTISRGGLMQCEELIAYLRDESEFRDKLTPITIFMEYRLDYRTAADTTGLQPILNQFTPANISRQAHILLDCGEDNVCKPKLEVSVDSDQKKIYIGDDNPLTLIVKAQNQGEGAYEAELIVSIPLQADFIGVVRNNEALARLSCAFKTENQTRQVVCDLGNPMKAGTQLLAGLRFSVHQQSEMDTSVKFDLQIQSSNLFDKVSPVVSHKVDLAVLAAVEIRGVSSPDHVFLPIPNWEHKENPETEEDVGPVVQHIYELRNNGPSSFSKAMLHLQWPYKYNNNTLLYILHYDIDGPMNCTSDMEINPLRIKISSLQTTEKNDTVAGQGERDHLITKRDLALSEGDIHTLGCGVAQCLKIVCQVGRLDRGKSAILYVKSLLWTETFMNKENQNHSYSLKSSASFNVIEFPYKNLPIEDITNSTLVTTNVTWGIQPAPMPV
# Sequence (P18564 22-707 limits assumed): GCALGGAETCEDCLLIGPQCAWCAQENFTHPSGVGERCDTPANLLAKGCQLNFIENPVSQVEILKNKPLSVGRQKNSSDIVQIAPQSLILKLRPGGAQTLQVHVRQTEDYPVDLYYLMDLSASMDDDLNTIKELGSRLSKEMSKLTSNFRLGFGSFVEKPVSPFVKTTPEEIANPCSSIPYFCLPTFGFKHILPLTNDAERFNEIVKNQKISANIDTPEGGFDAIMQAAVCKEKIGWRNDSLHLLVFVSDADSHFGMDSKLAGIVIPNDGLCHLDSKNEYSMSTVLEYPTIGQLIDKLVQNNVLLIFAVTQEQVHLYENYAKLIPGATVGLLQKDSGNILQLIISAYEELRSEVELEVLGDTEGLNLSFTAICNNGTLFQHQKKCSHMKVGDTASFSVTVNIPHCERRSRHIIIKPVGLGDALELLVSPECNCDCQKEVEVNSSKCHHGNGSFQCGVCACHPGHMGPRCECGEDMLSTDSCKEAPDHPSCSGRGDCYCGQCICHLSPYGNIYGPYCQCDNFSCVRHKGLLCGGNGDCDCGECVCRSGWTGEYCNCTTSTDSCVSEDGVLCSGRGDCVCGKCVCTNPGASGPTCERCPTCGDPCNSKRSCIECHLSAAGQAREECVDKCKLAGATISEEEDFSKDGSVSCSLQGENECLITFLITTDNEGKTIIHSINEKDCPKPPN
# test.description: human αVβ6 HTRF binding assay
# run.conditions: recombinant human αVβ6 integrin, FITC-conjugated fibronectin
readout.type: IC50 (nM)

1) O=C(O)C[C@@H](c1ccc(OCC2CC2)nc1)n1ccc(CCCc2ccc3c(n2)NCCC3)n1 = 3.5
2) CN(C)C(=O)c1ccc(C(CC(=O)O)c2nc(CCCc3ccc4c(n3)NCCC4)cs2)cc1 (single isomer, unassigned) [Example 138] = 4
3) Cc1cncc(C(CC(=O)O)c2nc(CCCc3ccc4c(n3)NCCC4)cs2)c1 (single isomer, unassigned) [Example 151] = 2.6
4) COc1ccc(C(CC(=O)O)c2nc(CCCCc3ccc4c(n3)NCCC4)cs2)cc1F (single isomer, unassigned) [Example 36] = 157
5) COc1ncc(C(CC(=O)O)c2nc(CCCCc3ccc4c(n3)NCCC4)cs2)cn1 (single isomer, unassigned) [Example 144] = 7
6) COc1cnc(C(CC(=O)O)n2nccc2CCCc2ccc3c(n2)NCCC3)cn1 (racemic) = 500
7) CN(C)C(=O)c1cccc(C(CC(=O)O)c2nc(CCCc3ccc4c(n3)NCCC4)cs2)c1 (single isomer, unassigned) [Example 140] = 3.7

Where these numbers come from: patent US11884661B2
